- System: U2OS
- ASSAY_DETAILS: Incucyte cell viability with U2OS; also: filed as whole numbers so only -1 and 0 and 1 occur
- Format: toxicity, cell-based
- CONDITION_INFO: human, 0 h, 10 µM, compound concentration 10 uM, replicate number 1, timepoint 0 hours
VALUE_TYPE: Growth Rate

{"columns": ["MOLECULE", "VALUE_TYPE", "MEASUREMENT"],
 "data": [
  ["CCC(=N\\O)/C(C)=C/c1ccc(F)c(C)c1", "Growth Rate", 0],
  ["N[C@@H](Cc1cc(I)c(Oc2ccc(O)c(I)c2)c(I)c1)C(=O)O", "Growth Rate", 0],
  ["Cc1cc([C@@H](C)Nc2cccc(-c3cc(C)c(C(=O)N[C@@H](C)C(=O)O)c(C)c3)c2)ccc1Cl", "Growth Rate", 0],
  ["C=CC(=O)N1CCC([C@@H]2CCNc3c(C(N)=O)c(-c4ccc(Oc5ccccc5)cc4)nn32)CC1", "Growth Rate", 0],
  ["C=CCn1c(=O)c2cnc(Nc3ccc(N4CCN(C)CC4)cc3)nc2n1-c1cccc(C(C)(C)O)n1", "Growth Rate", 0],
  ["COc1cc(N2CCC(N3CCN(C)CC3)CC2)ccc1Nc1ncc(Cl)c(Nc2ccccc2P(C)(C)=O)n1", "Growth Rate", 0],
  ["CN(C)C(=O)c1cc2cnc(Nc3ccc(N4CCNCC4)cn3)nc2n1C1CCCC1", "Growth Rate", 0],
  ["CC(C)(C)OC(=O)N1CCCC1CNC1CCC(c2cc(F)ccc2F)(S(=O)(=O)c2ccc(Cl)cc2)CC1 (stereo unspecified)", "Growth Rate", 0],
  ["CCCCCNC(=O)NS(=O)(=O)c1cc([N+](=O)[O-])ccc1NC1CCCCC1", "Growth Rate", 0],
  ["CC1(C)CCC(C)(C)c2cc(NC(=O)c3ccc(C(=O)O)cc3)ccc21", "Growth Rate", 0],
  ["O=C(Nc1cccnn1)N1CC(C/C=C/c2cncc(Oc3ccc(C(F)(F)F)cn3)n2)C1", "Growth Rate", 0],
  ["CCCn1c(=O)c2[nH]c(-c3cnn(Cc4cccc(C(F)(F)F)c4)c3)nc2n(CC)c1=O", "Growth Rate", 0],
  ["CCOC(=O)c1c(C)[nH]c2ccc3c(c12)CN1CCc2cc(OC)ccc2C1O3 (stereo unspecified)", "Growth Rate", 1],
  ["CC(C)c1onc(-c2c(Cl)cccc2Cl)c1COc1ccc(/C=C/c2cccc(C(=O)O)c2)c(Cl)c1", "Growth Rate", 0],
  ["CNc1cc(Oc2cc(C(=O)Nc3cc(N4CCN(C)CC4)cc(C(F)(F)F)c3)ccc2C)ncn1", "Growth Rate", 0],
  ["O=C1N/C(=N/c2ccccc2F)S/C1=C\\c1ccc(C(=O)O)cc1", "Growth Rate", 0],
  ["CN1CCN(c2cnc3c(C4CCN(C(=O)c5ccc(OC(F)(F)F)cc5N)CC4)ncnc3c2)CC1", "Growth Rate", 0],
  ["CCN(CC)S(=O)(=O)Nc1cccc(-c2ccc3c(NC(=O)C4CC4)n[nH]c3c2)c1", "Growth Rate", 0],
  ["C=C(c1ccc(C(=O)O)cc1)c1cc2c(cc1C)C(C)(C)CCC2(C)C", "Growth Rate", 0],
  ["Cc1cc(C)c(S(=O)(=O)N(Cc2ccc(-c3cccc(S(C)(=O)=O)c3)cc2)Cc2ccc(C(F)(F)F)o2)c(C)c1", "Growth Rate", 0],
  ["Cc1c(NC(=O)c2cc(C(N)=O)nc3cc(F)ccc23)c(C(F)(F)F)nn1Cc1ccc(C#N)cc1", "Growth Rate", 1],
  ["CC(C)(Sc1ccc(CCN(CCCCC2CCCCC2)C(=O)NC2CCCCC2)cc1)C(=O)O", "Growth Rate", 0],
  ["O=C(Nc1nc2cccc(-c3ccc(CN4CCS(=O)(=O)CC4)cc3)n2n1)C1CC1", "Growth Rate", 1],
  ["Cc1nnc2c3ccccc3c(N[C@@H](C)[C@H](c3ccccc3)N(C)C)nn12", "Growth Rate", 0],
  ["COc1cc(OC)cc(-c2noc(N3CCN(C)C4(CCN(c5ccnc(C)c5)CC4)C3)n2)c1", "Growth Rate", 0],
  ["CCCc1c(OCCCOc2ccc(OCC(=O)O)cc2)ccc(C(C)=O)c1O", "Growth Rate", 0],
  ["C[C@@H](c1cccc(C#N)c1)n1cc(Cl)cc(C(N)=O)c1=N.Cl", "Growth Rate", 0],
  ["NC(CCP(=O)(O)O)C(=O)O (racemic)", "Growth Rate", 0],
  ["O=C(Nc1ccc(Cl)cc1)Nc1cccc(-c2cccc(N3CCCC3)n2)c1", "Growth Rate", 0],
  ["COc1ccnc(N2CCC3(CCCN(Cc4c[nH]c5ccccc45)C3=O)CC2)n1", "Growth Rate", 1],
  ["O=C1NC(c2ccccn2)Sc2ccccc21 (stereo unspecified)", "Growth Rate", 0],
  ["CCCS(=O)(=O)Nc1ccc(F)c(C(=O)c2c[nH]c3ncc(Cl)cc23)c1F", "Growth Rate", 0],
  ["COC1CCN(c2cccc(-c3cc(NC(C)=O)nc(-n4nc(C)cc4C)n3)n2)CC1", "Growth Rate", 0],
  ["CC(=O)C1=C(C)N(c2cccc(C(F)(F)F)c2)C(=O)N[C@@H]1c1ccc(C#N)nc1", "Growth Rate", 0],
  ["CNC(=O)c1ccccc1Nc1cc(Nc2ccc(N3CCOCC3)cc2OC)ncc1C(F)(F)F", "Growth Rate", 1],
  ["COc1cccc2cc(-c3nc([C@H]4CC[C@H](C(=O)O)CC4)n4ncnc(N)c34)[nH]c12", "Growth Rate", 1]
]}
